system: TK-10 renal; experiment: NCI-60 one-dose screen, 48 h; conditions: 10 µM unless noted
This is part of a sample that, as a whole, favours compounds with a hit. Of some 83,000 tested, about 20% had one in any assay. Active and inactive are the calls of the source. Rule for the calls: active = growth percent below 10; inactive = the rest.
Possible outcomes: active, inactive

> print(dat)
                               record.smiles  study.target     label
 1                  CC1(C)C(=NO)C(C)(C)C1=NO   TK-10 renal  inactive
 2  COc1cc(-c2cc(-c3ccc(Nc4ncnc5cc(Cl)ccc45)cc3)nc(N3CCCCC3)n2)cc(OC)c1OC   TK-10 renal  inactive
 3  CC1=CC[C@@H]2C(C)(C)[C@@H](O)CC[C@@]2(C)[C@@H]1COc1ccc2ccc(=O)oc2c1   TK-10 renal  inactive
 4  Cc1cc(C)c(O)c(CNCCCCCCNCc2cc(C)cc(C)c2O)c1   TK-10 renal    active
 5           COc1ccc2nc3ccccc3c(NCCNCCO)c2c1   TK-10 renal    active
 6  O=C1Nc2ccccc2/C1=C/C(=O)c1ccc(N2CCCCC2)cc1   TK-10 renal  inactive
 7  COc1ccc(N(c2nc(-c3ccc([N+](=O)[O-])cc3)cs2)C(C)C)cc1   TK-10 renal  inactive
 8  CC(C)=CC/C=C(/C)[C@H]1CC[C@]2(C)[C@@H]1CC[C@@H]1[C@@]3(C)CCC(=O)NC(C)(C)[C@@H]3CC[C@]12C   TK-10 renal    active
 9  CCN=Cc1c(O)c(O)c(C(C)C)c2cc(C)c(-c3c(C)cc4c(C(C)C)c(O)c(O)c(C=NCC)c4c3O)c(O)c12   TK-10 renal  inactive
10  CC(C)(C)c1cc(C(=O)N2CCC(C(=O)NCCN)CC2)cc(C(C)(C)C)c1   TK-10 renal  inactive
